Conditions: in n-propanol, 323.15 K
REPORTED METRIC: solubility (mole fraction)
Number, no unit, nothing else.

## Task Given COc1ccc(C(=O)O)c(OC)c1 , state its recorded solubility (mole fraction).
## Result 0.0532

====

Conditions: in n-butanol, 303.15 K
REPORTED METRIC: solubility (mole fraction)
Number, no unit, nothing else.

## Task Given COc1ccc(C(=O)O)c(OC)c1 , state its recorded solubility (mole fraction).
## Result 0.0188

====

Details: in ethyl acetate, 293.15 K
REPORTED METRIC: solubility (mole fraction)

## Task Given COc1ccc(C(=O)O)c(OC)c1 , state its recorded solubility (mole fraction).
## Result 0.0205

Reference for the values: BigSolDB 2.1
